- ASSAYED_SYSTEM: Bifunctional 3'-5' exonuclease/ATP-dependent helicase WRN (Homo sapiens, UniProt Q14191)
- Sequence (Q14191 whole entry, the tested form may be a part): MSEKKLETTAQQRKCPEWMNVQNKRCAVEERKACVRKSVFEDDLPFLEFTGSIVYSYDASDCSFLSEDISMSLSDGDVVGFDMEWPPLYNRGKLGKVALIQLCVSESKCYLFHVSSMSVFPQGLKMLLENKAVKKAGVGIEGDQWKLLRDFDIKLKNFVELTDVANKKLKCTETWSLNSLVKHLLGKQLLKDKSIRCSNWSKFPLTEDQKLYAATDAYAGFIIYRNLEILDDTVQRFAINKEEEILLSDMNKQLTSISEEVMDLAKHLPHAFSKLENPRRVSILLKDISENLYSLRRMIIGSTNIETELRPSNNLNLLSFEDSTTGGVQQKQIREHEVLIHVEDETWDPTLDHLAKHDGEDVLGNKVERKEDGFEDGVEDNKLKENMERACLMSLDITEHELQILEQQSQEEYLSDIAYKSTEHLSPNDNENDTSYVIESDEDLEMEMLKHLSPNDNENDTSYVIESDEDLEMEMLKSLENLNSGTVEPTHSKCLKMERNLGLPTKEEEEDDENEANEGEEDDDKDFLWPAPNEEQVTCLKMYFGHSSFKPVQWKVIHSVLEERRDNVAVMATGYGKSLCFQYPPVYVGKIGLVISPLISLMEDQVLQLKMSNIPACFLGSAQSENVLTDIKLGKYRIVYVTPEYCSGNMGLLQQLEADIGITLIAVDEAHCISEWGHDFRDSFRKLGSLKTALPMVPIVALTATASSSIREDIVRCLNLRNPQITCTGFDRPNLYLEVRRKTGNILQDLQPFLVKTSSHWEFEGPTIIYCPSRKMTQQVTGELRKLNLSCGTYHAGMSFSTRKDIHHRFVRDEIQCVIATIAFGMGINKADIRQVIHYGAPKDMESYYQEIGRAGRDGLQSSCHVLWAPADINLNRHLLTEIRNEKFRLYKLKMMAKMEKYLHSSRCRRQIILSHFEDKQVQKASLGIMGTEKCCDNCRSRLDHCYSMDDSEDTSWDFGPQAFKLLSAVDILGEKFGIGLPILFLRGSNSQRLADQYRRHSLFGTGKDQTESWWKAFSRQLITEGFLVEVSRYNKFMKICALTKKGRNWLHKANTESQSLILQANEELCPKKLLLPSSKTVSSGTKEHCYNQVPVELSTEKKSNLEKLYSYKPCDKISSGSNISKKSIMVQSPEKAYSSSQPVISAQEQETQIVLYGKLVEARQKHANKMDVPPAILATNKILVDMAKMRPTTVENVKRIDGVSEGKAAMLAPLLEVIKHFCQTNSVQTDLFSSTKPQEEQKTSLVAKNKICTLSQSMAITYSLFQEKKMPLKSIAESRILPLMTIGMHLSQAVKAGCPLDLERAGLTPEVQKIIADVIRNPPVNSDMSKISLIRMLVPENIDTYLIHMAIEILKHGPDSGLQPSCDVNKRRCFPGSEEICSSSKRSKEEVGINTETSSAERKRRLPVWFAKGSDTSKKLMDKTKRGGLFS
- EXPERIMENT_NOTES: Inhibition of WRN helicase (500 to 942 residues)(unknown origin) using fluor/quencher-labeled forked double-stranded DNA substrate assessed as decrease in helicase unwinding activity preincubated for 1 hr followed by substrate addition measured after 1 hr in presence of ATP by fluorescence based assay
ENDPOINT_LABEL: IC50 (nM)
# number only, unit nM dropped from output

| COMPOUND | ENDPOINT_LABEL | OUTPUT_UNIT | OBSERVED_MEASUREMENT |
| --- | --- | --- | --- |
| CC(=O)N1CC=C(c2nc3n(CC(=O)Nc4ccc(C(F)(F)F)cc4Cl)c4c(c(=O)n3n2)C2(CCN(C(=O)c3ncccc3O)CC2)CC4C)CC1 (configuration not stated) | IC50 | nM | 2 |

IC50 for CC1CC2(CCN(C(=O)c3ncccc3O)CC2)c2c1n(CC(=O)Nc1ccc(C(F)(F)F)cc1)c1nc(C3=CCOCC3)nn1c2=O (configuration not stated) is 1.9

Taken from ChEMBL document CHEMBL6178006.
